Assay: Cell viability assay (MTT)
Type: cell-based, murine
Conditions: mouse, RAW 264.7 macrophage cells; RAW 264.7 macrophage cell line, MTT assay
Method: RAW 264.7 cells were acquired from the American type culture collection (ATCC, Manassas, VA) and cultured in Dulbecco's modified eagle's medium (DMEM, Gibco, Life Technologies, NY) supplemented with 10% fetal bovine serum (FBS) at 37 °C and 5% CO2. […] The effect of compounds (IBC, IBC-2, and IBC-3) on the viability of cells was evaluated at different concentrations against macrophage cell lines through the 3-(4,5-dimethylthiazol2-yl)-2, 5-diphenyltetrazolium bromide (MTT) assay. […]
Assign CC50 to each entry below.
Write the number in µM without appending the unit.

Task: GET /values?readout=CC50&item= CC(C)=CCc1c(O)ccc(C(=O)/C=C/c2ccc(O)cc2)c1O [IBC]
Result: 94

Task: GET /values?readout=CC50&item= CC(C)=CCc1c(O)ccc2c1O/C(=C\c1ccc(O)cc1)C2=O [IBC-3]
Result: 50

Task: GET /values?readout=CC50&item= CC1(C)CCc2c(ccc3c2OC(c2ccc(O)cc2)CC3=O)O1 (stereo not drawn) [IBC-2]
Result: 115
